Provenance of the data: ChEMBL document CHEMBL1147779

- TEST_TARGET: Stromelysin-1 (Homo sapiens, UniProt P08254)
- Sequence (P08254 whole entry): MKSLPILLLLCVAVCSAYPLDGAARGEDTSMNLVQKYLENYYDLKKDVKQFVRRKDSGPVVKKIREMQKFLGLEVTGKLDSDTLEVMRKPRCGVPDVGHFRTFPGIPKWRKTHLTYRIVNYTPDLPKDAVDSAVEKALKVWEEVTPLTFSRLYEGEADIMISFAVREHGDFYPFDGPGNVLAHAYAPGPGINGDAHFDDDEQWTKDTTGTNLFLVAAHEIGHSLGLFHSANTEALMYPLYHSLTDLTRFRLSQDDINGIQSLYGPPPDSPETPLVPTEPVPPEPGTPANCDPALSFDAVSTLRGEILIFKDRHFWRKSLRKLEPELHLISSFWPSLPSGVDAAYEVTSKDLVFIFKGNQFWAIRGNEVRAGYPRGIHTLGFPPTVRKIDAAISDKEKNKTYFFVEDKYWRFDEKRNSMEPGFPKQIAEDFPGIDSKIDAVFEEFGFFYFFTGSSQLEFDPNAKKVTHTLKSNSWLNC
- ASSAY_METHOD_TEXT: Inhibitory activity against MMP3
pIC50: −log10 of the molar value.
PROPERTY_LABEL: pIC50

(P) CN(CCOc1ccc(-c2ccc(C#N)cc2)cc1)C(=O)NO
(Q) CN(CCc1ccc(Oc2ccccc2)cc1)C(=O)NO
Given P and given Q , which shows the smaller recorded pIC50? Give the chosen item's label as your response.
Q
(Q: 3.42, P: 3.70)

###

- TEST_TARGET: 72 kDa type IV collagenase (Homo sapiens, UniProt P08253)
- Sequence (P08253 whole entry): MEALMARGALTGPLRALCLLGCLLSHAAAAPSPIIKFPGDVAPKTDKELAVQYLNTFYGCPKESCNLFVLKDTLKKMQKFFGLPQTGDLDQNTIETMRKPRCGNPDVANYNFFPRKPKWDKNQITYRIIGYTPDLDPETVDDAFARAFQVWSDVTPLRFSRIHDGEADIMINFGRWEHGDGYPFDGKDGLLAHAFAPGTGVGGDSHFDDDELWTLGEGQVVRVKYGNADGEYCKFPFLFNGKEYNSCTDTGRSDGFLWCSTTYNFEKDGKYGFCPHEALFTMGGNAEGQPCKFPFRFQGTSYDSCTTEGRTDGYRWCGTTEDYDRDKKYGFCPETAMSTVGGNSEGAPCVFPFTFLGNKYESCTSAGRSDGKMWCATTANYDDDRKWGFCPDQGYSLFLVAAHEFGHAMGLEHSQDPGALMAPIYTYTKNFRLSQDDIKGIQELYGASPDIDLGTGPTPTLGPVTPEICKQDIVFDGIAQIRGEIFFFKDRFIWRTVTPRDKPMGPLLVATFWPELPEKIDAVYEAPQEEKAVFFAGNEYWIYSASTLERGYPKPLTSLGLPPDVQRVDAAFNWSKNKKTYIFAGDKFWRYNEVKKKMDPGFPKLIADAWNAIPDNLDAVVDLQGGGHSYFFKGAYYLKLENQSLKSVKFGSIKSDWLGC
PROPERTY_LABEL: IC50

Give reported IC50 for `N#Cc1ccc(-c2ccc(OCCNC(=O)NO)cc2)cc1` (72 kDa type IV collagenase (Homo sapiens, UniProt P08253))
> 120 µM

###

- TEST_TARGET: Neutrophil collagenase (Homo sapiens, UniProt P22894)
- Sequence (P22894 whole entry): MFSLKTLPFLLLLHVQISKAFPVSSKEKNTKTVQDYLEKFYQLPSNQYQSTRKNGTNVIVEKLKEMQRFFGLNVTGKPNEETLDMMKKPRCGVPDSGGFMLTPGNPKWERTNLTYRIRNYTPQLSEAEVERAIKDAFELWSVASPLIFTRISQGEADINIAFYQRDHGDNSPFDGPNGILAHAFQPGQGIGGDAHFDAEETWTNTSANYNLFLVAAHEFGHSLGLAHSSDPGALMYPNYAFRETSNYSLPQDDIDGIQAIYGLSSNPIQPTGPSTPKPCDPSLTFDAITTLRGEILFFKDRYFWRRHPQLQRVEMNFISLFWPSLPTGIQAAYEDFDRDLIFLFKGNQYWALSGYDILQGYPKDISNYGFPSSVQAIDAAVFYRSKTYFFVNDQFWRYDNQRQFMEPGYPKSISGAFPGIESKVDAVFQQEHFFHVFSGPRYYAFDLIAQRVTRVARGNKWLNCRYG
- ASSAY_METHOD_TEXT: Inhibitory activity against MMP8
pIC50: −log10 of the molar value.
PROPERTY_LABEL: pIC50

GIVEN_SMILES	MEASURED_VALUE
CN(CCc1ccc(Oc2ccccc2)cc1)C(=O)NO	3.00
N#Cc1ccc(-c2ccc(OCCNC(=O)NO)cc2)cc1	< 3.92

Would you kindly look at the next entry?
Given the compound `O=C(NO)NCCc1ccc(Oc2ccccc2)cc1` , write its reported pIC50.
< 3.42
